System: Candida albicans
Experiment: Anti-fungal activity against Candida albicans A28660 (WT)
Assay type: functional
Would you kindly list MIC for each of these compounds?
Please give a number only; it is taken to be in µg/mL.

**Query** Tell me the measured MIC of CCCCCCOCC12C[C@@H]3[C@H](C)[C@@H](O)C[C@H]3C3(C=O)CC1C=C(C(C)C)[C@@]23C(=O)O , please.
**Result** 64

**Query** Tell me the measured MIC of CCCCCCOCC12C[C@H]3[C@@H](CC[C@]3(C)O)C3(C=O)CC1C=C(C(C)C)[C@@]23C(=O)O , please.
**Result** 8

**Query** Tell me the measured MIC of CCCCCCOCC12C[C@@H]3[C@H](C)CC[C@H]3C3(C=O)CC1C=C(C(C)C)[C@@]23C(=O)O , please.
**Result** 0.06

**Query** Tell me the measured MIC of CCCCCCOCC12CC3=C(C)CC[C@H]3C3(C=O)CC1C=C(C(C)C)[C@@]23C(=O)O , please.
**Result** 0.5

**Query** Tell me the measured MIC of CCCCCCOCC12C[C@@H]3[C@H](C)[C@H](F)C[C@H]3C3(C=O)CC1C=C(C(C)C)[C@@]23C(=O)O , please.
**Result** 0.5

**Query** Tell me the measured MIC of CCCCCCOCC12C[C@@]34[C@@H](CC[C@]3(C)C4(Cl)Cl)C3(C=O)CC1C=C(C(C)C)[C@@]23C(=O)O , please.
**Result** 32

**Query** Tell me the measured MIC of CCCCCCOCC12C[C@@H]3[C@H](C)C(=O)C[C@H]3C3(C=O)CC1C=C(C(C)C)[C@@]23C(=O)O , please.
**Result** 8

Data origin: ChEMBL document CHEMBL1134983
